Values compiled from ChEMBL document CHEMBL4689842.

- Tested on: U2OS
- TEST PROTOCOL: Multiplex assay against U2OS
- Format: toxicity, cell-based
- ASSAY CONTEXT: human, 24 h, 10 µM, compound concentration 10 uM, replicate 1
Each record is given YES if its reported Population Membrane Permeable-Phenotype (%) is strictly below 20%. Records at or above 20% are given NO.

- MOLECULE: "C=C1/C(=C\\C=C2/CCC[C@]3(C)[C@@H]([C@H](C)/C=C/[C@H](C)C(C)C)CC[C@@H]23)C[C@@H](O)C[C@@H]1O [DOXERCALCIFEROL]"
  GROUP: "YES"
- MOLECULE: "O=C(Nc1cccnn1)N1CCC(=Cc2cccc(Oc3ccc(C(F)(F)F)cn3)c2)CC1"
  GROUP: "YES"
- MOLECULE: "NC(=O)c1cccc(-c2cc(Nc3ccc(OC(F)(F)F)cc3)ncn2)c1"
  GROUP: "YES"
- MOLECULE: "CN1CCC(=C2c3ccccc3CC(=O)c3sccc32)CC1.O=C(O)/C=C/C(=O)O [KETOTIFEN FUMARATE]"
  GROUP: "YES"
- MOLECULE: "Cn1nc(C(=O)NCc2ccc(C(=O)O)cc2)cc1-c1ccc2[nH]ccc2c1 [BI 4395]"
  GROUP: "YES"
- MOLECULE: "O=C1N/C(=N/c2ccccc2F)S/C1=C\\c1ccc(C(=O)O)cc1"
  GROUP: "YES"
- MOLECULE: "COC(=N)c1nc2ccc3ncnc(Nc4ccc(OC)cc4F)c3c2s1"
  GROUP: "YES"
- MOLECULE: "Cc1ccc(C(=O)Nc2cccc(C(F)(F)F)c2)cc1Nc1nc(-c2cccnc2)nc2c1cnn2C"
  GROUP: "NO"
- MOLECULE: "Cl.O=c1c2cccn2c2ccccc2n1CCCN1CCC(c2ccc(Cl)cc2)CC1"
  GROUP: "NO"
- MOLECULE: "COc1cc2ncnc(Nc3ccc(F)c(Cl)c3)c2cc1NC(=O)/C=C/CN1CCCCC1 [DACOMITINIB ANHYDROUS]"
  GROUP: "YES"
- MOLECULE: "COc1ccc(S(=O)(=O)N(CCO)c2ccccc2CN(C)C/C=C/c2ccc(Cl)cc2)cc1.O=P(O)(O)O"
  GROUP: "NO"
- MOLECULE: "CCCS(=O)(=O)c1nc(NC2CC2)cc(-c2ccc3c(ccn3C3CC(C)(C)NC(C)(C)C3)c2)n1"
  GROUP: "NO"
- MOLECULE: "CNc1cc(Oc2cc(C(=O)Nc3cc(N4CCN(C)CC4)cc(C(F)(F)F)c3)ccc2C)ncn1"
  GROUP: "NO"
- MOLECULE: "O=C(Nc1ccc(-c2ccnc(Nc3ccc(N4CCOCC4)cc3)n2)cc1)[C@@H]1CCCN1"
  GROUP: "YES"
- MOLECULE: "O=C(Cc1ccc(-c2ccc(OCCN3CCOCC3)cc2)cn1)NCc1ccccc1 [TIRBANIBULIN]"
  GROUP: "YES"
- MOLECULE: "COc1ccc(-c2ccc3c(N4CCOCC4)nc(N4C[C@@H](C)O[C@@H](C)C4)nc3n2)cc1CO [Ku-0063794]"
  GROUP: "YES"
- MOLECULE: "CCOc1cc(C(=O)N2CCC(N3CCN(C)CC3)CC2)ccc1Nc1ncc2c(n1)N(C1CCCC1)c1ccccc1C(=O)N2C"
  GROUP: "NO"

###

Here, each record is paired with measured Population Apoptotic (%) data.
- Test system: U2OS
- TEST PROTOCOL: Multiplex assay against U2OS
- Assay type: toxicity, cell-based
- ASSAY CONTEXT: human, 12 h, 1 µM, compound concentration 1 uM, replicate 1
READOUT: Population Apoptotic (%)

- COMPOUND STRUCTURE STRING: "CN1CCN(C(=O)C(C)(C)c2ccc(C(=O)Nc3cn4cc(-c5cc(C(C)(C)C)cc(C(C)(C)C)c5)ccc4n3)cc2)CC1"
  RESULT: "25%"
- COMPOUND STRUCTURE STRING: "CCNc1cc(N[C@H]2CC[C@H](O)CC2)nc(Nc2ccc3c(ccn3Cc3ccccc3)c2)n1"
  RESULT: "64%"
- COMPOUND STRUCTURE STRING: "CCn1c(=O)c(-c2ccc(-c3cncs3)cc2Cl)cc2cnc(Nc3ccc(N4CCN(C)CC4)cc3)nc21"
  RESULT: "57%"
- COMPOUND STRUCTURE STRING: "O=C1NC(=O)C(c2cnc3ccccn23)=C1c1cn2c3c(cc(F)cc13)CN(C(=O)N1CCCCC1)CC2"
  RESULT: "37%"

###

- System: Fibroblast
- TEST PROTOCOL: Multiplex assay against human fibroblast
- Type: toxicity, cell-based
- ASSAY CONTEXT: 12 h, 1 µM, compound concentration 1 uM, replicate 2
Please note: yes (1) applies when Population Apoptotic (%) is 40% or greater, and no (0) applies otherwise.

- COMPOUND STRUCTURE STRING: "Cn1nc(C(F)(F)F)cc1-c1cnc(N2CCc3cc(S(=O)(=O)Nc4c(F)cc(Cl)cc4F)cc(N4CCCC4=O)c32)nc1"
  GROUP: "yes (1)"
- COMPOUND STRUCTURE STRING: "O=C(Cc1ccc(-c2ccc(OCCN3CCOCC3)cc2)cn1)NCc1ccccc1"
  GROUP: "no (0)"
- COMPOUND STRUCTURE STRING: "CCN1CCN(c2ccc(Nc3cc(N(C)C(=O)Nc4c(Cl)c(OC)cc(OC)c4Cl)ncn3)cc2)CC1"
  GROUP: "yes (1)"
- COMPOUND STRUCTURE STRING: "O=C(Nc1ccc(-c2ccnc(Nc3ccc(N4CCOCC4)cc3)n2)cc1)[C@@H]1CCCN1"
  GROUP: "no (0)"
- COMPOUND STRUCTURE STRING: "CCNc1cc(N[C@H]2CC[C@H](O)CC2)nc(Nc2ccc3c(ccn3Cc3ccccc3)c2)n1"
  GROUP: "yes (1)"
- COMPOUND STRUCTURE STRING: "COc1ccc(S(=O)(=O)N(CCO)c2ccccc2CN(C)C/C=C/c2ccc(Cl)cc2)cc1.O=P(O)(O)O"
  GROUP: "yes (1)"
- COMPOUND STRUCTURE STRING: "CN1CCN(C(=O)C(C)(C)c2ccc(C(=O)Nc3cn4cc(-c5cc(C(C)(C)C)cc(C(C)(C)C)c5)ccc4n3)cc2)CC1"
  GROUP: "yes (1)"
- COMPOUND STRUCTURE STRING: "O=C1N/C(=N/c2ccccc2F)S/C1=C\\c1ccc(C(=O)O)cc1"
  GROUP: "no (0)"
- COMPOUND STRUCTURE STRING: "C=CCn1c(=O)c2cnc(Nc3ccc(N4CCN(C)CC4)cc3)nc2n1-c1cccc(C(C)(C)O)n1"
  GROUP: "yes (1)"
- COMPOUND STRUCTURE STRING: "Cc1ccc(C(=O)Nc2cccc(C(F)(F)F)c2)cc1Nc1nc(-c2cccnc2)nc2c1cnn2C"
  GROUP: "yes (1)"
- COMPOUND STRUCTURE STRING: "COc1cccc2cc(-c3nc([C@H]4CC[C@H](C(=O)O)CC4)n4ncnc(N)c34)[nH]c12"
  GROUP: "yes (1)"
- COMPOUND STRUCTURE STRING: "CN[C@@H]1C[C@H]2O[C@@](C)([C@@H]1OC)n1c3ccccc3c3c4c(c5c6ccccc6n2c5c31)C(=O)NC4"
  GROUP: "yes (1)"
- COMPOUND STRUCTURE STRING: "CCCn1c(=O)c2[nH]c(-c3cnn(Cc4cccc(C(F)(F)F)c4)c3)nc2n(CC)c1=O"
  GROUP: "yes (1)"
- COMPOUND STRUCTURE STRING: "COc1ccc(-c2ccc3c(N4CCOCC4)nc(N4C[C@@H](C)O[C@@H](C)C4)nc3n2)cc1CO"
  GROUP: "no (0)"

###

- Test system: Fibroblast
- TEST PROTOCOL: Multiplex assay against human fibroblast
- Format: toxicity, cell-based
- ASSAY CONTEXT: 12 h, 1 µM, compound concentration 1 uM, replicate 2
YES if Population Pyknosed Nuclei (%) is below 10%. NO if not; exact matches included in NO.

- COMPOUND: "O=C(Nc1ccc(Cl)cc1)Nc1cccc(-c2cccc(N3CCCC3)n2)c1"
  GROUP: "YES"
- COMPOUND: "CCn1c(=O)c(-c2ccc(-c3cncs3)cc2Cl)cc2cnc(Nc3ccc(N4CCN(C)CC4)cc3)nc21"
  GROUP: "NO"
- COMPOUND: "S=C(NCCCc1c[nH]cn1)NCCCN(Cc1ccc(Cl)c(Cl)c1)c1ccc(Br)cn1"
  GROUP: "YES"
- COMPOUND: "CN(C)C(=O)C(CCN1CCC(O)(c2ccc(Cl)cc2)CC1)(c1ccccc1)c1ccccc1.Cl [LOPERAMIDE HYDROCHLORIDE]"
  GROUP: "YES"
- COMPOUND: "CCN1CCN(c2ccc(Nc3cc(N(C)C(=O)Nc4c(Cl)c(OC)cc(OC)c4Cl)ncn3)cc2)CC1 [INFIGRATINIB]"
  GROUP: "NO"
- COMPOUND: "CCOc1cc2ncc(C#N)c(Nc3ccc(OCc4ccccn4)c(Cl)c3)c2cc1NC(=O)/C=C/CN(C)C [NERATINIB]"
  GROUP: "YES"
- COMPOUND: "CNC(=O)c1ccc(Nc2nc(OC3CCCC3)c3c(-c4ccc5nc(C)oc5c4)c[nH]c3n2)c(OC)c1"
  GROUP: "YES"
- COMPOUND: "O=C1N/C(=N/c2ccccc2F)S/C1=C\\c1ccc(C(=O)O)cc1"
  GROUP: "YES"
- COMPOUND: "CN1CCC(=C2c3ccccc3CC(=O)c3sccc32)CC1.O=C(O)/C=C/C(=O)O [KETOTIFEN FUMARATE]"
  GROUP: "YES"
- COMPOUND: "CCCn1c(=O)c2[nH]c(-c3cnn(Cc4cccc(C(F)(F)F)c4)c3)nc2n(CC)c1=O [GS 6201]"
  GROUP: "YES"
- COMPOUND: "COc1ccc(S(=O)(=O)N(CCO)c2ccccc2CN(C)C/C=C/c2ccc(Cl)cc2)cc1.O=P(O)(O)O"
  GROUP: "YES"
- COMPOUND: "Cc1ccc(C(=O)Nc2cccc(C(F)(F)F)c2)cc1Nc1nc(-c2cccnc2)nc2c1cnn2C"
  GROUP: "NO"
- COMPOUND: "CCOc1cc(C(=O)N2CCC(N3CCN(C)CC3)CC2)ccc1Nc1ncc2c(n1)N(C1CCCC1)c1ccccc1C(=O)N2C"
  GROUP: "NO"
- COMPOUND: "CN1CCN(C(=O)C(C)(C)c2ccc(C(=O)Nc3cn4cc(-c5cc(C(C)(C)C)cc(C(C)(C)C)c5)ccc4n3)cc2)CC1 [T3-CLK-N]"
  GROUP: "NO"
- COMPOUND: "COc1cc(N2CCN(C)CC2)ccc1Nc1ncc2c(n1)N(C)c1ccccc1C(=O)N2C"
  GROUP: "NO"
- COMPOUND: "CN1C2CCC1CC(OC(c1ccc(F)cc1)c1ccc(F)cc1)C2.Cl (stereo unspecified)"
  GROUP: "YES"
- COMPOUND: "Cl.O=C(c1ccc(Nc2nccc(-c3cc4ccccc4s3)n2)cc1)N1CCC(N2CCCC2)CC1"
  GROUP: "NO"
- COMPOUND: "CNc1cc(Oc2cc(C(=O)Nc3cc(N4CCN(C)CC4)cc(C(F)(F)F)c3)ccc2C)ncn1"
  GROUP: "NO"
